Biological target: T1, recombinant hAng-2 (C-His, R&D Systems) (human, UniProt O15123 19-496)
T1 construct: Bought protein; also called human Ang-2 protein; C-terminal histidine-tagged human Ang2 (R&D Systems); not shown: C-terminal His tag
T1 sequence: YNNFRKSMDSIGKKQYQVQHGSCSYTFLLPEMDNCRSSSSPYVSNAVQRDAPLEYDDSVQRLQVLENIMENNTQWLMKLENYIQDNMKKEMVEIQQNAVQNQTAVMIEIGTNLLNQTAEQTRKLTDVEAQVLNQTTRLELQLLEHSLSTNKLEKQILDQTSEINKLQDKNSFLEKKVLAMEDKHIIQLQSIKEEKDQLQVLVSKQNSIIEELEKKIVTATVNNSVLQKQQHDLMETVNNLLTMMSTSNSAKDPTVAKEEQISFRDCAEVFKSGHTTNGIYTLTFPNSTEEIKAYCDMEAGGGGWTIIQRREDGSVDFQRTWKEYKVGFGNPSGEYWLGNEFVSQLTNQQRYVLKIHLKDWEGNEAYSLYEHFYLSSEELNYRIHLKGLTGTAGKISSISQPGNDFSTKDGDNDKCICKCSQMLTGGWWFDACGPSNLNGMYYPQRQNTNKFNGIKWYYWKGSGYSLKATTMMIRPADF
Assay: SPR, BIAcore T100; hAng2 (C-His) captured by anti-His antibody on CM5, antibody as analyte
pKd: −log10 of the molar value.
experimental_readout: pKd

>>> obs_value("h10D6-OPTI-3 (antibody, human IgG1, V domains shown) VH: EVQLVESGGGLVQPGGSLRLSCAASGYSITSDYAWNWVRQAPGKGLEWMGKISYSGKTDYNPSLKSRSTISRDTSKNTFYLQMNSLRAEDTAVYYCARGNFEGAMDYWGQGTLVTVSS VL: DIQMTQSPSSLSASVGDRVTITCKASQSVSNDVAWYQQKPGKAPKLLIYYASNRYPGVPSRFSGSGSGTDFTLTISSLQPEDFATYYCQQDYSSPWTFGQGTKLEIK")
9.31
>>> obs_value("10D6-HU3 (antibody, V domains shown, Humanized antibody; also called humanized antibody 10D6-HU3) VH: EVQLVESGGGLVQPGGSLRLSCAASGYSITSDYAWNWVRQAPGKGLEWMGYINYSGNTDYNPSLKSRSTISRDTSKNTFYLQMNSLRAEDTAVYYCARGNFEGAMDYWGQGTLVTVSS VL: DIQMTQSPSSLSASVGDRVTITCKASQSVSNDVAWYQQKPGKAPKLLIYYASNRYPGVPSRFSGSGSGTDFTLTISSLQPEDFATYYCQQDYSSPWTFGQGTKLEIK")
7.37
>>> obs_value("h10D6-OPTI-2 (antibody, human IgG1, V domains shown) VH: QVQLQESGPGLVKPSETLSLTCAVSGYSITSDYAWNWIRQPPGKGLEWMGKINYAGNTDYNPSLKSRSTISRDTSKNQFSLKLSSVTAADTAVYYCARGNFEGAMDYWGQGTLVTVSS VL: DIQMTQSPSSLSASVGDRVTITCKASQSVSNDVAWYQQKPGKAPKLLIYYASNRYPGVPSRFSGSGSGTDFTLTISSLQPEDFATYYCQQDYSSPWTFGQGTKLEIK")
9.47
>>> obs_value("10D6-HU1 (antibody, V domains shown, Humanized antibody; also called humanized antibody 10D6-HU1) VH: QVQLQESGPGLVKPSETLSLTCAVSGYSISSDYAWNWIRQPPGKGLEWIGYINYSGNTDYNPSLKSRVTISVDTSKNQFSLKLSSVTAADTAVYYCARGNFEGAMDYWGQGTLVTVSS VL: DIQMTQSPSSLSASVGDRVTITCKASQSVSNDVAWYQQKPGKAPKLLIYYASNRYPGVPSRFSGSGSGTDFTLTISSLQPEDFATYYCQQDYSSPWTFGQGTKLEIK")
7.08
>>> obs_value("h10D6-OPTI-17 (antibody, human IgG1, V domains shown) VH: EVQLVESGGGLVQPGGSLRLSCAASGYSITSDYAWNWVRQAPGKGLEWMGKINYAGNTDYNPSLKSRSTISRDTSKNTFYLQMNSLRAEDTAVYYCARGNFEGAMDYWGQGTLVTVSS VL: DIQMTQSPSSLSASVGDRVTITCKASQSVSNDVHWYQQKPGKAPKLLIYYASNRYPGVPSRFSGSGSGTDFTLTISSLQPEDFATYYCQQDYSSPWTFGQGTKLEIK")
9.12
>>> obs_value("SAIT-ANG2-AB-m10D6 (antibody, V domains shown, Mouse monoclonal antibody purified from a hybridoma (KCLRF-BP-00295); it is not applied here; also called mouse antibody 10D6; 10D6 antibody) VH: DVQLQESGPDLVKPSQSLSLTCTVTGYSITSDYAWNWIRQFPGNKLEWMGYINYSGNTDYNPSLKSRSSITRDTSKNQFFLQLNSVTTGDTATYYCARGNFEGAMDYWGQGTSVTVSS VL: SIVMTQTPKFLLVSAGDRVTITCKASQSVSNDVAWYQQKPGQSPKLLIYYASNRYPGVPDRFTGSGYGTDFTFTISTVQAEDLAVYFCQQDYSSPWTFGGGTKLEIK")
8.10
>>> obs_value("10D6-HU5 (antibody, V domains shown, Humanized antibody; also called humanized antibody 10D6-HU5) VH: QVQLQESGPGLVKPSETLSLTCAVSGYSITSDYAWNWIRQPPGKGLEWIGYINYSGNTDYNPSLKSRVTISVDTSKNQFSLKLSSVTAADTAVYYCARGNFEGAMDYWGQGTLVTVSS VL: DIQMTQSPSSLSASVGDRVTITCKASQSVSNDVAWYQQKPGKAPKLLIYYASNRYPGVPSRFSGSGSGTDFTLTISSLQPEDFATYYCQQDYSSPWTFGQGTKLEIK")
7.19
>>> obs_value("h10D6-OPTI-67 (antibody, human IgG1, V domains shown) VH: QVQLQESGPGLVKPSETLSLTCAVSGYSITSDYAWNWIRQPPGKGLEWMGKISYSGKTDYNPSLKSRSTISRDTSKNQFSLKLSSVTAADTAVYYCARGNFEGAMDYWGQGTLVTVSS VL: DIQMTQSPSSLSASVGDRVTITCKASQSVSNDVHWYQQKPGKAPKLLIYYASIPYPGVPSRFSGSGSGTDFTLTISSLQPEDFATYYCQQDYSSPWTFGQGTKLEIK")
12.89

Numbers sourced from patent US20160053025A1.
